- Experimental Target: α-1d adrenoreceptor (Rattus norvegicus, UniProt P23944)
- Sequence (P23944 whole entry): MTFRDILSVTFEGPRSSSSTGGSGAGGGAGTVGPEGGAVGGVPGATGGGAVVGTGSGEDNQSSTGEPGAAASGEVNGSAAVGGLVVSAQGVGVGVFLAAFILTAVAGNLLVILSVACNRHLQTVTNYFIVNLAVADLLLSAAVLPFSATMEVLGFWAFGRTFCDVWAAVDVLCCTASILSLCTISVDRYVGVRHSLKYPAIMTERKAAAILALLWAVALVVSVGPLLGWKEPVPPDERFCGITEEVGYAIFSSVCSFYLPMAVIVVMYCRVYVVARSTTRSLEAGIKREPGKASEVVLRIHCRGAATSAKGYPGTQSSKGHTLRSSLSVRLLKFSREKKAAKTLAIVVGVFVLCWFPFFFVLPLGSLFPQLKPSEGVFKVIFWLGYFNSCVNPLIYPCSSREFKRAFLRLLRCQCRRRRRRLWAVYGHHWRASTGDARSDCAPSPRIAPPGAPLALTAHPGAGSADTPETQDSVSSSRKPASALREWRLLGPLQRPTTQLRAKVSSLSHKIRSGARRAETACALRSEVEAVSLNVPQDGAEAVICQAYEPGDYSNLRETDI
- Protocol Summary: biochemical
- Format: binding
- Run Parameters: read-out: Radioligand Binding (Ki, nM) 1d (Rat)
Counter-ions that a name gives are not always drawn.
The entries below are paired with their reported log10 Ki.
Observation Type: log10 Ki (log10 of the value in nM)

[
  {
    "Compound": "COc1cccc2c1OC[C@H]1CN(CCCn3c(=O)[nH]c4c(sc5ccccc54)c3=O)C[C@@H]21.Cl (racemic) [Example 68, hydrochloride]",
    "Experimental Target": "α-1d adrenoreceptor (Rattus norvegicus, UniProt P23944)",
    "log10 Ki": 1.63
  },
  {
    "Compound": "COc1cccc2c1[C@H]1CN(CCCCn3c(=O)[nH]c4c(sc5cccnc54)c3=O)C[C@@H]1CO2 (racemic) [Example 72, dihydrochloride]",
    "Experimental Target": "α-1d adrenoreceptor (Rattus norvegicus, UniProt P23944)",
    "log10 Ki": -0.09
  },
  {
    "Compound": "COc1cc2[nH]c(=O)n(CCCCN3C[C@@H]4COc5cccc(OC)c5[C@@H]4C3)c(=O)c2cc1OC (racemic) [Example 79, hydrochloride]",
    "Experimental Target": "α-1d adrenoreceptor (Rattus norvegicus, UniProt P23944)",
    "log10 Ki": -0.44
  },
  {
    "Compound": "Cl.O=c1[nH]c2c(sc3ccccc32)c(=O)n1CCN1C[C@@H]2COc3ccccc3[C@@H]2C1 (racemic) [Example 69, hydrochloride]",
    "Experimental Target": "α-1d adrenoreceptor (Rattus norvegicus, UniProt P23944)",
    "log10 Ki": 0.21
  },
  {
    "Compound": "COc1ccc2c(c1)OC[C@H]1CN(CCCn3c(=O)[nH]c4c(sc5ccccc54)c3=O)C[C@@H]21.Cl (racemic) [Example 64, hydrochloride]",
    "Experimental Target": "α-1d adrenoreceptor (Rattus norvegicus, UniProt P23944)",
    "log10 Ki": 1.02
  },
  {
    "Compound": "COc1ccc2c(c1)[C@@H]1CN(CCn3c(=O)[nH]c4c(sc5ncccc54)c3=O)C[C@@H]1CO2 (racemic) [Example 78, hydrochloride]",
    "Experimental Target": "α-1d adrenoreceptor (Rattus norvegicus, UniProt P23944)",
    "log10 Ki": -0.32
  }
]

* * *

The entries below are paired with their reported log10(Ki).
- Experimental Target: α-1A adrenoreceptor (rat submaxillary gland) (Rattus norvegicus)
- Sequence (P43140 1-466): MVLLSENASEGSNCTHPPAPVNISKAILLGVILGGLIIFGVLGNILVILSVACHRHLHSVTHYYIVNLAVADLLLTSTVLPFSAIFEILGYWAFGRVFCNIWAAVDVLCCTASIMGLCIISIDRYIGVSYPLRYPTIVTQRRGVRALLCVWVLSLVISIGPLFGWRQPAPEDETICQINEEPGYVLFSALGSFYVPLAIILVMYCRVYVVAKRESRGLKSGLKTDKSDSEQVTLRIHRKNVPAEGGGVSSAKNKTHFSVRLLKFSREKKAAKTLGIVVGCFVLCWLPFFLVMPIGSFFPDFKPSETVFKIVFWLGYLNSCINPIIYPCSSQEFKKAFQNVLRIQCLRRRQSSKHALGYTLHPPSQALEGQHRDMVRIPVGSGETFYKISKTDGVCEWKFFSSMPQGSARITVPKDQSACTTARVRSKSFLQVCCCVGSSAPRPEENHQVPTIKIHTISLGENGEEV
- Protocol Summary: biochemical
- Type: binding
- Run Parameters: [3H]-prazosin radioligand; rat submaxillary gland membranes; read-out: Radioligand Binding (Ki, nM) 1A (Rat)
- Experimental: Additionally, binding affinity against the pharrnacologically defined α-1A adrenoreceptor (rat submaxillary gland) was measured. […] Receptor binding assays for α-1 adrenoreceptors were performed essentially as described by Greengrass and Bremner (Eur. J. Pharmacol. 55: 323-326 (1979)). […] Radioactivity was determined by standard liquid scintillation techniques. […]
Where a name gives a salt, the structure may show the parent alone.
Observation Type: log10(Ki) (log10 of the value in nM)

[
  {
    "Molecule": "COc1cccc2c1[C@H]1CN(CCCCn3c(=O)[nH]c4c(sc5c(Cl)ccnc54)c3=O)C[C@@H]1CO2 [Example 5, dihydrochloride]",
    "log10(Ki)": -0.57
  },
  {
    "Molecule": "COc1cccc2c1[C@@H]1CN(CCCCn3c(=O)[nH]c4c(sc5ncc(-c6ccccc6)nc54)c3=O)C[C@@H]1CO2 [Example 39, hydrochloride]",
    "log10(Ki)": -0.46
  },
  {
    "Molecule": "COc1cccc2c1[C@@H]1CCN(CCCCn3c(=O)[nH]c4c(sc5ncc(-c6ccccc6)nc54)c3=O)C[C@H]1CO2 [Example 100, hydrochloride]",
    "log10(Ki)": 1.48
  },
  {
    "Molecule": "COc1cccc2c1[C@@H]1CN(CCCCn3c(=O)[nH]c4c(sc5ccc(Cl)nc54)c3=O)C[C@@H]1CO2 [Example 37, hydrochloride]",
    "log10(Ki)": -0.58
  },
  {
    "Molecule": "COc1cccc2c1[C@@H]1CN(CCCCn3c(=O)[nH]c4c(sc5ncc(-c6ccsc6)nc54)c3=O)C[C@@H]1CO2 [Example 57, dihydrochloride]",
    "log10(Ki)": -0.17
  },
  {
    "Molecule": "COc1cccc2c1[C@H]1CCN(CCCCn3c(=O)[nH]c4c(sc5cccnc54)c3=O)C[C@@H]1CO2 [Example 94, dihydrochloride]",
    "log10(Ki)": -0.73
  },
  {
    "Molecule": "COc1cccc2c1[C@@H]1CN(CCCCn3c(=O)[nH]c4c(sc5nc(C)ccc54)c3=O)C[C@@H]1CO2 [Example 35, hydrochloride]",
    "log10(Ki)": -0.51
  },
  {
    "Molecule": "COc1cccc2c1[C@@H]1CN(CCCCn3c(=O)[nH]c4c(sc5ncc(Cl)nc54)c3=O)C[C@H]1CO2 [Example 13, hydrochloride]",
    "log10(Ki)": -1.00
  },
  {
    "Molecule": "COc1cccc2c1[C@@H]1CN(CCCCn3c(=O)[nH]c4c(sc5cnccc54)c3=O)C[C@@H]1CO2 [Example 29, dihydrochloride]",
    "log10(Ki)": -0.60
  },
  {
    "Molecule": "COc1cccc2c1[C@H]1CCN(CCCCn3c(=O)[nH]c4c(sc5ncc(Cl)nc54)c3=O)C[C@@H]1CO2 [Example 96, dihydrochloride]",
    "log10(Ki)": -0.09
  },
  {
    "Molecule": "COc1cccc2c1[C@@H]1CN(CCCCn3c(=O)[nH]c4c(sc5ncccc54)c3=O)C[C@@H]1CO2 [Example 34, hydrochloride]",
    "log10(Ki)": -0.32
  },
  {
    "Molecule": "COc1ccc(O)c2c1[C@@H]1CN(CCCCn3c(=O)[nH]c4c(sc5ncc(-c6ccccc6)nc54)c3=O)C[C@@H]1CO2 [Example 105]",
    "log10(Ki)": 1.42
  },
  {
    "Molecule": "COc1cccc2c1[C@@H]1CCN(CCCn3c(=O)[nH]c4c(sc5cccnc54)c3=O)C[C@H]1CO2 [Example 92, dihydrochloride]",
    "log10(Ki)": 0.59
  },
  {
    "Molecule": "COc1cccc2c1[C@H]1CN(CCCCn3c(=O)[nH]c4c(sc5ncc(Cl)nc54)c3=O)C[C@@H]1CO2 [Example 10, hydrochloride]",
    "log10(Ki)": -0.18
  },
  {
    "Molecule": "COc1cccc2c1[C@@H]1CN(CCCCn3c(=O)[nH]c4c(sc5ccc(-c6cccnc6)nc54)c3=O)C[C@H]1CO2 [Example 58, trihydrochloride]",
    "log10(Ki)": -0.56
  },
  {
    "Molecule": "COc1cccc2c1[C@@H]1CN(CCCCn3c(=O)[nH]c4c(sc5c(Cl)nccc54)c3=O)C[C@H]1CO2 [Example 54]",
    "log10(Ki)": -1.11
  }
]
